Target: 5HT3 receptor (Rattus norvegicus)
Construct: in the anesthetized rat; from tissue; host or cells: whole anesthetized rat (in vivo); endogenous receptor
Assay: Inhibition of the von Bezold-Jarisch chemoreflex evoked by 5-HT in the anesthetized rat (in vivo 5HT3 antagonist activity)
Settings: dose 3 μg/kg i.v., 5-HT 20 ug/kg i.v., mean ± S.E.M., 6 animals, * p < 0.01 vs controls
% inhibition of the Bezold-Jarisch reflex for assorted compounds
# unit: % | format: bare number

Here is how some compounds turned out for % inhibition of the Bezold-Jarisch reflex.
Cc1[nH]cnc1CN1CCN(c2cccc(Br)c2)C1=O ... 30.0
Cc1[nH]cnc1CN1CCN(c2ccccc2)C1=O ... 37.4
Cc1cccc(N2CCN(Cc3nc[nH]c3C)C2=O)c1 ... 51.1

Ask: Query: % inhibition of the Bezold-Jarisch reflex; subject: Cc1[nH]cnc1CN1CCN(c2cccc(Cl)c2)C1=O
Reply: 37.8

###

Below, each entry is listed alongside its reported % inhibition of the Bezold-Jarisch reflex.
Target: 5HT3 receptor (Rattus norvegicus)
Construct: in the anesthetized rat; from tissue; host or cells: whole anesthetized rat (in vivo); endogenous receptor
Sequence (P35563 24-483): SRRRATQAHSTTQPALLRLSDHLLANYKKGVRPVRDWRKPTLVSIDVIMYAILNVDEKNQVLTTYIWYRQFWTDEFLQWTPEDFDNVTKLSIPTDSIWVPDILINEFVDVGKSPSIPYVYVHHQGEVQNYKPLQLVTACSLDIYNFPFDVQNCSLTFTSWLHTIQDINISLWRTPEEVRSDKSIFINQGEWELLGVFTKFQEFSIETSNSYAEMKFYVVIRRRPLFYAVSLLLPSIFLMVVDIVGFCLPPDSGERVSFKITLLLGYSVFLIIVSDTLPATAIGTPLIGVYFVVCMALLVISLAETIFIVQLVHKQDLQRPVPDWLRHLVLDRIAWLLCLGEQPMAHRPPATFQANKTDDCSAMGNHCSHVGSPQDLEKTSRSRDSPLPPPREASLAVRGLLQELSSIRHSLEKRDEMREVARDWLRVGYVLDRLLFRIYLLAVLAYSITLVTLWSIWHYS
Assay: Inhibition of the von Bezold-Jarisch chemoreflex evoked by 5-HT in the anesthetized rat (in vivo 5HT3 antagonist activity)
Details: dose 1 μg/kg i.v., 5-HT 20 ug/kg i.v., mean ± S.E.M., 6 animals, * p < 0.01 vs controls
Reply with just the number (in %).

Answered examples (3):
Cc1[nH]cnc1CN1CCN(c2cc(Cl)cc(Cl)c2)C1=O ... 18.2
Cc1[nH]cnc1CN1CCN(c2cccc(Cl)c2)C1=O ... 7.0
Cc1[nH]cnc1CN1CCN(c2ccccc2)C1=O ... 14.7

Could you now look at the following molecule, please?
Ask: Form field: reported % inhibition of the Bezold-Jarisch reflex of Cc1cccc(N2CCN(Cc3nc[nH]c3C)C2=O)c1
Reply: 14.6
